Provide the recorded Transient HEK293 hRXFP1 cAMP EC50 for the entries that follow.
# system-under-test: T1, human RXFP1 (human, UniProt Q9HBX9 1-757)
# T1 sequence (looked up): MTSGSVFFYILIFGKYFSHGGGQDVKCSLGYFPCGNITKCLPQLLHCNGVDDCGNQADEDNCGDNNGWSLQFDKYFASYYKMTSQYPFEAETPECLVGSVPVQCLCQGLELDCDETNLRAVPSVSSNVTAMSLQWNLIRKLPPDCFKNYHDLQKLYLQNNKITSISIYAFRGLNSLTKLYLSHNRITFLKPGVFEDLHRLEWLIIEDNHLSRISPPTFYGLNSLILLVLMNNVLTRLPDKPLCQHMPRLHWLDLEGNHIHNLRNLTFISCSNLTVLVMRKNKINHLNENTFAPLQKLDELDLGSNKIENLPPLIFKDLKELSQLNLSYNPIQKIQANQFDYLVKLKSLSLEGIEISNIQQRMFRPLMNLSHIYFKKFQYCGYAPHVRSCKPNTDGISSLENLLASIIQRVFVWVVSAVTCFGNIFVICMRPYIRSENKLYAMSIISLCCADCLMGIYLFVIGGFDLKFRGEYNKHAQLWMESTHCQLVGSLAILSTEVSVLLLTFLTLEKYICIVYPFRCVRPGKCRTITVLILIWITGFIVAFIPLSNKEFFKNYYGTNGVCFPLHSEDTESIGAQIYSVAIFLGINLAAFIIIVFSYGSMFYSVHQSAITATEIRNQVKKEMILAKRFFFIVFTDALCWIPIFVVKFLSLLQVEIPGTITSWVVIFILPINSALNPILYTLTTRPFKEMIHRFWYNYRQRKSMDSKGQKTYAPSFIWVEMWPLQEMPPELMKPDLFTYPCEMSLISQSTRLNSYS
# measurement-protocol: cell-based or functional assay
Answers are plain numbers, in nM.

Please review the following examples before continuing.
binder="SEQ ID NO: 313 (Fc fusion) DKTHTCPPCPAPEAAGGPSVFLFPPKPKDTLMISRTPEVTCVVVDVSHEDPEVKFNWYVDGVEVHNAKTKPREEQYNSTYRVVSVLTVLHQDWLNGKEYKCKVSNKALAAPIEKTISKAKGQPREPQVYTLPPSRDELTKNQVSLTCLVKGFYPSDIAVEWESNGQPENNYKTTPPVLDSDGSFFLYSKLTVDKSRWQQGNVFSCSVLHEALHSHYTQKSLSLSPGKGGSDSWQEEVIKLCGRELVRAQIAICGKSTGGGEGGGEGGGEGRQLYSALANKCCHVGCTKRSLAQFC" measured_quantity="Transient HEK293 hRXFP1 cAMP EC50" reading_unit=nM value=10
binder="SEQ ID NO: 93 (Fc fusion) DKTHTCPPCPAPEAAGGPSVFLFPPKPKDTLMISRTPEVTCVVVDVSHEDPEVKFNWYVDGVEVHNAKTKPREEQYNSTYRVVSVLTVLHQDWLNGKEYKCKVSNKALAAPIEKTISKAKGQPREPQVYTLPPSRDELTKNQVSLTCLVKGFYPSDIAVEWESNGQPENNYKTTPPVLDSDGSFFLYSKLTVDKSRWQQGNVFSCSVLHEALHSHYTQKSLSLSPGEGGSDSWQEEVIKLCGRELVRAQIAICGKSTASDAAGADADAGARQLYSALANKCCHVGCTKRSLAQFC" measured_quantity="Transient HEK293 hRXFP1 cAMP EC50" reading_unit=nM value=19.1

Now let's try a different one.
[ask] Name the recorded Transient HEK293 hRXFP1 cAMP EC50 of the binder listed here: Wild-type human relaxin-2 (ligand) chain 1: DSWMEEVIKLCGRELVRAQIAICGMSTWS chain 2: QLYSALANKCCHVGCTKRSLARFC
[reply] 0.039
